Where do the numbers come from? From PubChem BioAssay.

target: Carbonic anhydrase 2 (Homo sapiens) (UniProt P00918); assay: CAII small-molecule binders, profiling panel, biochemical, small-molecule microarray, Alexa647-labelled CAII (AID 1122); conditions: CAII-A647 binding fluorescence, higher = more signal
experimental-endpoint: composite z-score
Give only the figure.

Memo: C=C(CCCC)C(=O)CC[C@@H](OC(=O)c1cccnc1)c1ccc(OCCO)cc1 , reported composite z-score: 0.718

Data point: C[C@]1(C(=O)NCCN2CCOCC2)c2ccccc2C(=O)N(Cc2cc(F)cc(C(F)(F)F)c2)[C@H]1c1ccc(CO)cc1 ; composite z-score = 0.773

So for O=C1OCCC/C=C\[C@H]2OC34C=CCN(c5ccc6ccccc6c5)C(=O)[C@H]3N(CCCO)C(=O)[C@@H]4C12 (stereo partly specified) , the logged composite z-score turned out to be 0.94

response.value for [N-]=[N+]=NC[C@H](Cc1ccccc1)NC(=O)c1ccccc1 (field: composite z-score) = 0.294

Consider [N-]=[N+]=Nc1ccccc1C[C@]1(C(=O)NCc2ccccc2)COC(c2ccc(OCCCO)cc2)=N1 . Its measured composite z-score is 0.383

According to the records, this compound C=CC1c2cc(O)c(OC)cc2CCN1Cc1ccc([N+](=O)[O-])o1 (stereo unspecified) displays composite z-score of 0.847

The compound listed as O=C1OCCC=C[C@H]2OC34C=CCN(c5ccc(Cl)cc5)C(=O)[C@H]3N(CCCCCCO)C(=O)[C@@H]4C12 (stereo partly specified) has a reported composite z-score of 0.802

Record summary for O=C1C2C=CC(C(O)c3ccc4c(c3)OCO4)N(Nc3ccccc3)C2C(=O)N1c1ccccc1 (stereo unspecified) : reported composite z-score = 0.468

The value of composite z-score measured for the compound CCOC(=O)C=Cc1ccccc1O turned out to be 0.188

// recorded composite z-score for COc1cc(NN2C(C(O)C3CCCCC3)C=CC3C(=O)N(C)C(=O)C32)cc(OC)c1OC (stereo unspecified) : 0.424

The compound listed as COC(=O)C(CC#Cc1ccc2c(c1)[C@]1(C(=O)N2)[C@H](c2ccc(O)cc2)N2[C@H](c3ccccc3)[C@H](c3ccccc3)OC(=O)[C@H]2[C@@H]1C(=O)N1CCCCCCC1)C(=O)OC shows composite z-score equal to 0.816

Sample CC(C)[C@H]1NC(=O)[C@@]23C(=O)N[C@@H](Cc4ccccc4)C2[C@H](C)[C@@]2(C)O[C@H]2C3/C=C/C/C=C\CNC(=O)[C@H](Cc2ccccc2)NC1=O (stereo partly specified) ; composite z-score observed: 0.318

Per the records, this compound ( [N-]=[N+]=NCc1ccccc1[C@@H]1OC(c2ccc(OCCCO)cc2)=N[C@]1(Cc1ccccc1N=[N+]=[N-])C(=O)N1CCCCC1 ) has composite z-score equal to 0.56

response.value for O=C1O[C@H](c2ccccc2)[C@H](c2ccccc2)N2[C@H]1[C@@H](C(=O)N1CCCCCCC1)[C@]1(C(=O)Nc3ccc(C#CC4(O)CCCCCC4)cc31)[C@H]2c1ccc(O)cc1 (field: composite z-score) = 0.705

response.value for CC(C)[Si]1(C(C)C)OCc2cc(-c3ccc(-c4ccc(Cl)c(Cl)c4)o3)nc(CCc3ccccc3)c21 (field: composite z-score) = 0.384

Sample CC(C)C(=C=CC[C@@H](O)c1cccc(OCCO)c1)C[C@@H](O)COCc1ccccc1 ; composite z-score observed: 0.763
